- EXPERIMENT SUMMARY: Human HepG2 cell viability assay in 384 well format
- Type: toxicity, cell-based
- Set-up: dose 125 nL, time 70.5 hour; concentration not given beside the values
- TEST CONTEXT: HepG2 cells, read-out: Inhibition
QUANTITY: cytotoxicity at 70.5 h (%)
Give the quantity in %, number only.

COMPOUND: CC(C)N1CCC(Cc2cncc(-c3ccccc3C(=O)O)n2)C1 (stereo unspecified)
UNITS LABEL: %
cytotoxicity at 70.5 h: -4.44
--
COMPOUND: Cc1ccc(C#N)c(N2CC(C)(C)[C@@](C)(O)C2)n1
UNITS LABEL: %
cytotoxicity at 70.5 h: -6.73

Give the value of cytotoxicity at 70.5 h reported for the following: CN(Cc1ccccc1)C(=O)CCN1C[C@H](C2CC2)[C@@H](N(C)C)C1
-10.8

Give the value of cytotoxicity at 70.5 h reported for the following: CSCCC(=O)N1CCC(CCC(=O)NCC2CCCO2)CC1 (stereo unspecified)
-13.2

Give the value of cytotoxicity at 70.5 h reported for the following: Cc1cc(C)n(-c2ccnc(N3CCC(C(=O)N4CCCC4)CC3)n2)n1
-4.06

Give the value of cytotoxicity at 70.5 h reported for the following: CCn1ccnc1CN1CCN(c2ncnc3ccsc23)CC1
-3.44

====

- EXPERIMENT SUMMARY: Human HepG2 cell viability assay in 384 well format
- Format: toxicity, cell-based
- Design: dose 125 nL, time 70.5 hour; concentration not given beside the values
- TEST CONTEXT: HepG2 cells, read-out: Inhibition
QUANTITY: cytotoxicity at 70.5 h (%)
Give the quantity in %, number only.

Give the value of cytotoxicity at 70.5 h reported for the following: N#Cc1cccnc1OC1CCNCC1
37.8

Give the value of cytotoxicity at 70.5 h reported for the following: CC(=O)CN1CCC2(CC1)c1ccccc1[C@@H](N1CCSCC1)[C@@H]2O
-5.27

Give the value of cytotoxicity at 70.5 h reported for the following: Cc1nc(C2CCCN(C(=O)c3cccc4c3OCCO4)C2)no1 (centres undefined)
-1.54

Give the value of cytotoxicity at 70.5 h reported for the following: COCCn1ccnc1C1CCN(c2cccc(C(=O)O)n2)CC1
-3.81

Give the value of cytotoxicity at 70.5 h reported for the following: CC(=O)Nc1ccc(CN2CCc3[nH]cnc3C2c2nccn2C)cc1 (centres undefined)
-3.14

Give the value of cytotoxicity at 70.5 h reported for the following: CCn1cnnc1CN(C)Cc1nc(-c2cc(OC)ccc2F)oc1C
-6.85

Give the value of cytotoxicity at 70.5 h reported for the following: CN1CCCN(C(=O)c2ccc3c(c2)nc(N2CCOCC2)n3C)CC1
-8.33

====

- EXPERIMENT SUMMARY: Human HepG2 cell viability assay in 384 well format
- Type: toxicity, cell-based
- Set-up: dose 125 nL, time 70.5 hour; concentration not given beside the values
- TEST CONTEXT: HepG2 cells, read-out: Inhibition
QUANTITY: cytotoxicity at 70.5 h (%)
Give the quantity in %, number only.

Recorded cytotoxicity at 70.5 h, per entry:
COMPOUND: COCc1ccc(CN2CCC(O)(Cn3ccc4ncccc43)CC2)o1
cytotoxicity at 70.5 h, %: -8.64
//
COMPOUND: N#Cc1cnc(NC2CCN(C(=O)C3CC3)CC2)c(Cl)c1
cytotoxicity at 70.5 h, %: 0.703
//
COMPOUND: CN1CC[C@@H]2OC[C@H](C(=O)N(C)Cc3ccccn3)C[C@@H]2C1
cytotoxicity at 70.5 h, %: 2.32
//
COMPOUND: Cc1cc(N2CCCC2c2cnccn2)ncn1 (centres undefined)
cytotoxicity at 70.5 h, %: -5.35
//
COMPOUND: CC(=O)N1CCNCC1c1cccc(C(=O)N(C)C)c1 (centres undefined)
cytotoxicity at 70.5 h, %: -8.36
//
COMPOUND: c1ccc(N2CCCC3(CCN(Cc4nccs4)C3)C2)nc1 (centres undefined)
cytotoxicity at 70.5 h, %: 6.32
//
COMPOUND: O=C(Nc1nncs1)N1CCCN(C2CCCCC2)CC1
cytotoxicity at 70.5 h, %: -12.6
//
COMPOUND: Cc1nnc(C(C)Nc2ccc(OCCc3ccccc3)nc2)o1 (centres undefined)
cytotoxicity at 70.5 h, %: 0.291
//
COMPOUND: Cc1csc(CNC(=O)NC2CCCN(S(C)(=O)=O)C2)n1 (centres undefined)
cytotoxicity at 70.5 h, %: -12.3
//
COMPOUND: CS(=O)(=O)NCCCN1CCCC1c1ccsc1 (centres undefined)
cytotoxicity at 70.5 h, %: -9.71

Give the value of cytotoxicity at 70.5 h reported for the following: Cc1noc(C(C)C)c1C(=O)NS(=O)(=O)c1ccc(Cl)cc1
-3.31

Give the value of cytotoxicity at 70.5 h reported for the following: CCN(Cc1ccco1)C(=O)NCC(c1cccs1)N(C)C (centres undefined)
20.6

Give the value of cytotoxicity at 70.5 h reported for the following: CC(C)NC(=O)Nc1nc2c(s1)CN(C(=O)NCc1cccs1)CC2
-0.676

Give the value of cytotoxicity at 70.5 h reported for the following: CN(Cc1ccsc1)C(=O)Nc1ccc(=O)n(C)c1
-6.48

Give the value of cytotoxicity at 70.5 h reported for the following: Cc1cc(NCCC(=O)NC2CCS(=O)(=O)C2)nc(-c2ccncc2)n1 (centres undefined)
-8.91

Give the value of cytotoxicity at 70.5 h reported for the following: Cc1nn(C)c(Cl)c1C1CCCN1CC(=O)N1CCOCC1 (centres undefined)
1.93

Give the value of cytotoxicity at 70.5 h reported for the following: O=C(CC1CC1)N[C@@H]1CN(Cc2ccncc2)C[C@@H]2CCCO[C@@H]21
-0.814

Give the value of cytotoxicity at 70.5 h reported for the following: Cc1nc(C2(O)CCCNCC2)sc1CCOc1ccccc1F (centres undefined)
2.34

Give the value of cytotoxicity at 70.5 h reported for the following: CCN1CCC2(CC1)CC(NCc1cccc(C)n1)c1ccccc1O2 (centres undefined)
-16.9

Give the value of cytotoxicity at 70.5 h reported for the following: CC(c1ccc(Cl)cc1)N1CCN(CCCS(C)(=O)=O)CC1 (centres undefined)
1.48

Give the value of cytotoxicity at 70.5 h reported for the following: Cc1cc(C)n(CC2CCCN2C(=O)c2ccnc(N(C)C)c2)n1 (centres undefined)
10.6

Give the value of cytotoxicity at 70.5 h reported for the following: CN(C)S(=O)(=O)CCNc1ncc2c(n1)CCN2c1ccccc1
-6.26

Give the value of cytotoxicity at 70.5 h reported for the following: O=C1[C@H]2CN(c3ncc(F)cn3)C[C@H]2CN1CC1CC1
5.29

Give the value of cytotoxicity at 70.5 h reported for the following: N#CCCNC(=O)c1ccn(-c2ccc3ccccn23)n1
-7.72
